- system tested: nSMase3 (Homo sapiens)
- Construct: made in house; host or cells: Saccharomyces cerevisiae JK9-3dΔIsc1p (microsomal fractions)
- test details: nSMase activity in microsomal fractions of JK9-3dΔIsc1p yeast cells transfected with pYES-nSMase3
- Format: biochemical
- cond: graded concentrations of cations; MgCl2 and MnCl2 at 5 mM
recorded metric: effect of cations on nSMase3 activity

>>> reported("[Cl-].[Cl-].[Mg+2]")
"stimulated nSMase3"
>>> reported("[Cl][Mn][Cl]")
"stimulated nSMase3"
